# test target: human intracellular domain of KDR (VEGF Receptor-2) (Homo sapiens, UniProt P35968)
# Construct: A fusion protein containing the intracellular domain (amino acids 793 to 1357) of the KDR and N-terminally tagged to GST; E. coli BL21 (pGEX-4T-1) for GST-PLCγ
# Sequence (P35968 794-1356 limits assumed): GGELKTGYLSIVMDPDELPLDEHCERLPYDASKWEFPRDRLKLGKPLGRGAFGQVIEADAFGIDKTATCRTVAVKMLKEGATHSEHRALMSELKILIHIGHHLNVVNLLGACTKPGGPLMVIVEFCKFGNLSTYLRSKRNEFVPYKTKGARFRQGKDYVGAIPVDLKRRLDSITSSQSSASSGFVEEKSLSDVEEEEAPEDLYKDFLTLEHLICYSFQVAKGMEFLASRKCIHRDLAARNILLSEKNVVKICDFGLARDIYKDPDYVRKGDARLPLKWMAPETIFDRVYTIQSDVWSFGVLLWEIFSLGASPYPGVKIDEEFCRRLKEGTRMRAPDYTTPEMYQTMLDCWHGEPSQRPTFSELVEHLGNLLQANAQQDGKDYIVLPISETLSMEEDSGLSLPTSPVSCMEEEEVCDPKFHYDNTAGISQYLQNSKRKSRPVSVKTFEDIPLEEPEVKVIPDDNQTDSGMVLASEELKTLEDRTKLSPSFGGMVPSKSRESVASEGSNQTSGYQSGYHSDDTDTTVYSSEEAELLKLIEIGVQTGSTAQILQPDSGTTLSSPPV
# measurement description: In vitro KDR kinase assay
# run parameters: IC50 as molar concentration; GST-KDR-cyt, substrate phospholipase Cγ, ATP 100 μM, 30 min room temperature, time-resolved fluorometry
measurement label: IC50 (nM)

molecule: CNC(=O)Nc1cc(CNc2ccccc2C(=O)NOCc2ccc(C#N)cc2)ccn1
IC50 [nM]: 7.94

(1) N#Cc1ccc(CONC(=O)c2ccccc2NCc2ccc3c(c2)CCO3)cc1
(2) O=C(NOCc1cc2c(cc1Cl)OCO2)c1ccccc1NCc1ccncc1
(3) N#Cc1ccc(CONC(=O)c2ccccc2NCc2ccnc3ccccc23)cc1
(4) CCC(CC)CONC(=O)c1ccccc1NCc1ccncc1
Would you mind ranking these molecules by ascending IC50? # the answer lists labels in the order requested 4, 2, 3, 1

----------
# test target: human intracellular domain of KDR (VEGF Receptor-2) (Homo sapiens)
# Construct: A fusion protein containing the intracellular domain (amino acids 793 to 1357) of the KDR and N-terminally tagged to GST; E. coli BL21 (pGEX-4T-1) for GST-PLCγ
# measurement description: In vitro KDR kinase assay
# run parameters: IC50 as molar concentration; GST-KDR-cyt, substrate phospholipase Cγ, ATP 100 μM, 30 min room temperature, time-resolved fluorometry
pIC50: −log10 of the molar value.
measurement label: pIC50

Would you please look over these solved cases?
compound: O=C(NOCC1CCCO1)c1ccccc1NCc1ccncc1 (stereo not drawn)
val: 7.10
//
compound: O=C(NOCc1ccccc1)c1cccnc1NCc1ccncc1
val: 7.00
//
compound: O=C(NOCc1ccc(OC(F)(F)F)cc1)c1ccccc1NCc1ccncc1
val: 7.10

(A) O=C(NOCc1ccccc1)c1ccccc1NCc1ccncc1
(B) N#CCc1ccccc1CONC(=O)c1ccccc1NCc1ccncc1
(C) Cc1nc(CONC(=O)c2ccccc2NCc2ccnc3ccccc23)cs1
Arrange by pIC50, high to low. Your answer should be the labels, listed in the requested order. C, B, A
(C: 7.70, B: 7.30, A: 7.10)
